Taken from patent US20110118447A1.

- targetOfAssay: binding partner of C5A (XPA23)
- measurementDescription: Biacore
attributeMeasured: fold difference in affinity vs original (fold)
Please respond with the number in fold and leave the unit unwritten.

# input For the binder C5A (XPA23) VH Y107I (antibody, V domains shown) VH: EVQLLESGGGLVQPGGSLRLSCAASGFTFSKYFMFWVRQAPGKGLEWVSVISPSGGMTRYADSVKGRFTISRDNSKNTLYLQMNSLRAEDTAVYYCARVGYGGNSDIWGQGTLVTVSS VL: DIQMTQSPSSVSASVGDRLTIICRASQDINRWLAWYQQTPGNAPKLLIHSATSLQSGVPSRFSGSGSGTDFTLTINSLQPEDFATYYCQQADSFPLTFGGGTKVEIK , what fold difference in affinity vs original is on record?
# output 0.96

# input Same read-out for C5A (XPA23) VH P53G (antibody, V domains shown) VH: EVQLLESGGGLVQPGGSLRLSCAASGFTFSKYFMFWVRQAPGKGLEWVSVISGSGGMTRYADSVKGRFTISRDNSKNTLYLQMNSLRAEDTAVYYCARVGYGGNSDYWGQGTLVTVSS VL: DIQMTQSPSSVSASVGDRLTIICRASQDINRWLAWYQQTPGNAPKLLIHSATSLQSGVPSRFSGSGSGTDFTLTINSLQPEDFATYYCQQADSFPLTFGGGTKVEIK ?
# output 0.02

# input What about this binder? C5A (XPA23) VH V50G (antibody, V domains shown) VH: EVQLLESGGGLVQPGGSLRLSCAASGFTFSKYFMFWVRQAPGKGLEWVSGISPSGGMTRYADSVKGRFTISRDNSKNTLYLQMNSLRAEDTAVYYCARVGYGGNSDYWGQGTLVTVSS VL: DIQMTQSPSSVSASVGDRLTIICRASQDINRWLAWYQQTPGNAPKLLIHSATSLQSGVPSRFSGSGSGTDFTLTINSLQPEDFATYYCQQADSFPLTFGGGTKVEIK
# output 0.03

# input What do we get for C5A (XPA23) VH G55L (antibody, V domains shown) VH: EVQLLESGGGLVQPGGSLRLSCAASGFTFSKYFMFWVRQAPGKGLEWVSVISPSLGMTRYADSVKGRFTISRDNSKNTLYLQMNSLRAEDTAVYYCARVGYGGNSDYWGQGTLVTVSS VL: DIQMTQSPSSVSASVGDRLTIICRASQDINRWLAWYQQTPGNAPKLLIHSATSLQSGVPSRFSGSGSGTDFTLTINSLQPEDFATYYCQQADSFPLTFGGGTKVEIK ?
# output 0.08

# input Now this one: C5A (XPA23) VH I51A (antibody, V domains shown) VH: EVQLLESGGGLVQPGGSLRLSCAASGFTFSKYFMFWVRQAPGKGLEWVSVASPSGGMTRYADSVKGRFTISRDNSKNTLYLQMNSLRAEDTAVYYCARVGYGGNSDYWGQGTLVTVSS VL: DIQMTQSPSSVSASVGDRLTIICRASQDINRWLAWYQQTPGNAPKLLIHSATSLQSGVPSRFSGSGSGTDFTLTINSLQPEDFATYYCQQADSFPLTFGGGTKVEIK
# output 1.04

# input Now consider C5A (XPA23) VH F33P (antibody, V domains shown) VH: EVQLLESGGGLVQPGGSLRLSCAASGFTFSKYPMFWVRQAPGKGLEWVSVISPSGGMTRYADSVKGRFTISRDNSKNTLYLQMNSLRAEDTAVYYCARVGYGGNSDYWGQGTLVTVSS VL: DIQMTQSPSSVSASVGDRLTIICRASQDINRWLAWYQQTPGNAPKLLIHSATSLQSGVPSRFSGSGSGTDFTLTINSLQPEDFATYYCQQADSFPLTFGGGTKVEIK and answer again.
# output 0.91

# input Repeat for the following binder: C5A (XPA23) VH Y101T (antibody, V domains shown) VH: EVQLLESGGGLVQPGGSLRLSCAASGFTFSKYFMFWVRQAPGKGLEWVSVISPSGGMTRYADSVKGRFTISRDNSKNTLYLQMNSLRAEDTAVYYCARVGTGGNSDYWGQGTLVTVSS VL: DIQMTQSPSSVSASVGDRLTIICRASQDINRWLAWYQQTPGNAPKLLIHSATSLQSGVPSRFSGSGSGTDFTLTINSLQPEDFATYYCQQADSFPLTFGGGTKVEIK
# output 0.06

# input # iterate: C5A (XPA23) VH V50A (antibody, V domains shown) VH: EVQLLESGGGLVQPGGSLRLSCAASGFTFSKYFMFWVRQAPGKGLEWVSAISPSGGMTRYADSVKGRFTISRDNSKNTLYLQMNSLRAEDTAVYYCARVGYGGNSDYWGQGTLVTVSS VL: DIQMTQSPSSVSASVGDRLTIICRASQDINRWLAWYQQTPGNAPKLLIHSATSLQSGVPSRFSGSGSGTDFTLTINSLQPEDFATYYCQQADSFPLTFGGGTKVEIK
# output 0.09

# input Next up: C5A (XPA23) VH G56I (antibody, V domains shown) VH: EVQLLESGGGLVQPGGSLRLSCAASGFTFSKYFMFWVRQAPGKGLEWVSVISPSGIMTRYADSVKGRFTISRDNSKNTLYLQMNSLRAEDTAVYYCARVGYGGNSDYWGQGTLVTVSS VL: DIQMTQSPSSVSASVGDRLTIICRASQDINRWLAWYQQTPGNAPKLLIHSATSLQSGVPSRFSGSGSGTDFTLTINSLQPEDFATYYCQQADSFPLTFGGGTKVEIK
# output 1.71

# input Another binder to look at: C5A (XPA23) VH F35P (antibody, V domains shown) VH: EVQLLESGGGLVQPGGSLRLSCAASGFTFSKYFMPWVRQAPGKGLEWVSVISPSGGMTRYADSVKGRFTISRDNSKNTLYLQMNSLRAEDTAVYYCARVGYGGNSDYWGQGTLVTVSS VL: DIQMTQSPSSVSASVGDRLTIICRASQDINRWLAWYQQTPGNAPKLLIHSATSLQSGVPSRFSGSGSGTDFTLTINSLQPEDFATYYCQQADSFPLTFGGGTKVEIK
# output 0.06
